# testName: Half-life of the conjugate when treated with 10% foetal bovine serum for enzymatic stability
# Format: ADME, Bos taurus
# conditionParameters: cattle
Starred links: 1 amine or outer side, 2 acyl side, 3 side chain; linkers in the order of their positions; H or OH if unused. Non-standard residues stand in square brackets, D forms with d. Residues, ends and D or L forms follow the SMILES beside them. hArg = N=C(N)NCCCC[C@H](N)C(=O)O; X1 = NCCCC(CC(=O)[*:2])N[*:1]; hLys = NCCCCC[C@H](N)C(=O)O
Record form. Attribute: half-life. Fill in for each entry.

Request: What value of half-life has been reported for the following compound? NCCCC[C@@H](C=O)NC(=O)[C@H](CCCCN)NC(=O)[C@H](CCCCN)NC(=O)CC(CCCN)NC(=O)[C@H](CCCCN)NC(=O)[C@H](CCCCN)NC(=O)CC(CCCN)NC(=O)[C@H](CCCCN)NC(=O)[C@@H](N)CCCCN (stereo partly drawn) (H-KK[X1]KK[X1]KKK-aldehyde)
Response: > 168 h

Request: Please do the same for NCCCCC[C@H](NC(=O)[C@H](CCCCCN)NC(=O)[C@H](CCCCN)NC(=O)[C@H](CCCCN)NC(=O)[C@H](CCCCN)NC(=O)[C@H](CCCCN)NC(=O)[C@H](CCCCCN)NC(=O)[C@@H](N)CCCCCN)C(=O)N[C@H](C=O)CCCCN (H-[hLys][hLys]KKKK[hLys][hLys]K-aldehyde) as well.
Response: 120 h

Request: Queued: NCCCC[C@@H](C=O)NC(=O)[C@H](CCCCN)NC(=O)[C@H](CCCCN)NC(=O)[C@H](CCCCN=C(N)N)NC(=O)[C@H](CCCCN)NC(=O)[C@H](CCCCN)NC(=O)[C@H](CCCCN=C(N)N)NC(=O)[C@H](CCCCN)NC(=O)[C@@H](N)CCCCN (H-KK[hArg]KK[hArg]KKK-aldehyde)
Response: > 168 h

* * *

# testName: Half-life of the conjugate when treated with 25% murine serum for enzymatic stability
# Type: ADME
# conditionParameters: mouse
Non-standard residues stand in square brackets, D forms with d. Residues, ends and D or L forms follow the SMILES beside them. Lys(Me2) = CN(C)CCCC[C@H](N)C(=O)O; hLys = NCCCCC[C@H](N)C(=O)O; Nlys = NCCCCNCC(=O)O
Lab note: anything with half-life at or over 7 h counts as True; the rest go in False.

Request: Confirm if half-life reported for the molecule NCCCC[C@H](NC(=O)[C@H](CCCCN)NC(=O)[C@H](CCCCN)NC(=O)CN(CCCCN)C(=O)[C@H](CCCCN)NC(=O)[C@H](CCCCN)NC(=O)CN(CCCCN)C(=O)[C@H](CCCCN)NC(=O)[C@@H](N)CCCCN)C(=O)O (H-KK[Nlys]KK[Nlys]KKK-OH) is 7 h or above.
Response: True

Request: Okay, and NCCCCC[C@H](NC(=O)[C@H](CCCCN)NC(=O)[C@H](CCCCN)NC(=O)[C@H](CCCCCN)NC(=O)[C@H](CCCCN)NC(=O)[C@@H](N)CCCCN)C(=O)N[C@@H](CCCCN)C(=O)N[C@@H](CCCCN)C(=O)N[C@H](C=O)CCCCN (H-KK[hLys]KK[hLys]KKK-aldehyde) ?
Response: True

Request: Ok, now CN(C)CCCC[C@H](NC(=O)[C@H](CCCCN(C)C)NC(=O)[C@H](CCCCN(C)C)NC(=O)[C@H](CCCCN(C)C)NC(=O)[C@H](CCCCN(C)C)NC(=O)[C@H](CCCCN(C)C)NC(=O)[C@H](CCCCN(C)C)NC(=O)[C@@H](N)CCCCN(C)C)C(=O)N[C@H](C=O)CCCCN (H-[Lys(Me2)][Lys(Me2)][Lys(Me2)][Lys(Me2)][Lys(Me2)][Lys(Me2)][Lys(Me2)][Lys(Me2)]K-aldehyde)
Response: True

Request: Please give the result for `NCCCC[C@@H](C=O)NC(=O)[C@H](CCCCN)NC(=O)[C@H](CCCCN)NOC(=O)[C@H](CCCN)NC(=O)[C@H](CCCCN)NC(=O)[C@H](CCCCN)NOC(=O)[C@H](CCCN)NC(=O)[C@H](CCCCN)NC(=O)[C@@H](N)CCCCN` too.
Response: True

Request: Can you handle NCCCC[C@@H](C=O)NC(=O)CC(CCCN)NC(=O)CC(CCCN)NC(=O)CC(CCCN)NC(=O)CC(CCCN)NC(=O)CC(CCCN)NC(=O)CC(CCCN)NC(=O)CC(CCCN)NC(=O)CC(N)CCCN (stereo partly drawn) next?
Response: True

Request: Try this molecule too: NCCCC[C@@H](C=O)NC(=O)[C@H](Cc1c[nH]cn1)NC(=O)[C@H](CCCCN)NC(=O)[C@H](Cc1c[nH]cn1)NC(=O)[C@H](CCCCN)NC(=O)[C@H](Cc1c[nH]cn1)NC(=O)[C@H](CCCCN)NC(=O)[C@H](Cc1c[nH]cn1)NC(=O)[C@@H](N)CCCCN (H-KHKHKHKHK-aldehyde)
Response: False

Request: Consider next the molecule `NCCCC[C@@H](C=O)NC(=O)[C@H](CCCCN)NC(=O)[C@H](CCCCN)NC(=O)[C@H](CCCCN)NC(=O)[C@H](CCCCN)NC(=O)[C@H](CCCCN)NC(=O)[C@H](CCCCN)NC(=O)[C@H](CCCCN)NC(=O)[C@@H](N)CCCCN` in the same way.
Response: False

Request: Field entry: `NCCCC[C@@H](C=O)NC(=O)[C@H](CCCCN)NC(=O)[C@@H](CCCCN)NC(=O)[C@H](CCCCN)NC(=O)[C@H](CCCCN)NC(=O)[C@@H](CCCCN)NC(=O)[C@H](CCCCN)NC(=O)[C@@H](N)CCCCN`
Response: True
